target: Androgen receptor (Rattus norvegicus)
Sequence (P15207 whole entry): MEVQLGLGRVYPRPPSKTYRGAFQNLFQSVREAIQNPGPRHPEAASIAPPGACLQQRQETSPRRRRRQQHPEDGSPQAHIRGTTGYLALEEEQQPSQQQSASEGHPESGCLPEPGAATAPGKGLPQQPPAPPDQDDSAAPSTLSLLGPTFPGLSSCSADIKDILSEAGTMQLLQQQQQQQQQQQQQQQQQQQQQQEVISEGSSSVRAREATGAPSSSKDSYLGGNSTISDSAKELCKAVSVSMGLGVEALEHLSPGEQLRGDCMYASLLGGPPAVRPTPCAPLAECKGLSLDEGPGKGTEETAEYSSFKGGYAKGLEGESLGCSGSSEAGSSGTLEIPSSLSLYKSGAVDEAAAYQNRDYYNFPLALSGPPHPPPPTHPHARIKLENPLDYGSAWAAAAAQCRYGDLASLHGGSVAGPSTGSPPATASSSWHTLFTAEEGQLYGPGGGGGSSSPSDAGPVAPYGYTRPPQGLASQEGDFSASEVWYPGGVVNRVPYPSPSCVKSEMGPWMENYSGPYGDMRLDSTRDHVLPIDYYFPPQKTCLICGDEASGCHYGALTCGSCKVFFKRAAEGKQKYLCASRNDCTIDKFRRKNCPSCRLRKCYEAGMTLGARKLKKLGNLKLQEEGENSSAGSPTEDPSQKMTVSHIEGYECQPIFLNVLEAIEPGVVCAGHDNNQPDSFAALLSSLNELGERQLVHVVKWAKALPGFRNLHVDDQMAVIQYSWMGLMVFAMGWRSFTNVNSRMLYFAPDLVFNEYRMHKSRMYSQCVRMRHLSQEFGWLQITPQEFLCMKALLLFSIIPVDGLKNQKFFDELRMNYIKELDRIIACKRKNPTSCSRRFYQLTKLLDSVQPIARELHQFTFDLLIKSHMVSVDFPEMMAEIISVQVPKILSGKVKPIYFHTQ
The compounds listed here are annotated with their Ki.
value_type: Ki

> print(dat)
                            chemical.smiles                                 target  measured.result
1  CC1(C)C(=O)N(c2ccc(C#N)c(I)c2)C(=S)N1Cc1ccccc1  Androgen receptor (Rattus norvegicus)         0.219 µM
2  C=CCN1C(=O)N(c2ccc(C#N)c(I)c2)C(=O)C1(C)C  Androgen receptor (Rattus norvegicus)         0.059 µM
3  COCCN1C(=S)N(c2ccc(C#N)c(I)c2)C(=O)C1(C)C  Androgen receptor (Rattus norvegicus)         0.037 µM
4    CN1C(=S)N(c2ccc(C#N)c(I)c2)C(=O)C1(C)C  Androgen receptor (Rattus norvegicus)        0.0025 µM
5  CCCCN1C(=O)N(c2ccc(C#N)c(I)c2)C(=O)C1(C)C  Androgen receptor (Rattus norvegicus)         0.077 µM
6  CC1(C)C(=O)N(c2ccc(C#N)c(I)c2)C(=O)N1CCCCO  Androgen receptor (Rattus norvegicus)         0.002 µM
7  CCCCN1C(=S)N(c2ccc(C#N)c(I)c2)C(=O)C1(C)C  Androgen receptor (Rattus norvegicus)         0.117 µM
8  CC1(C)C(=O)N(c2ccc(C#N)c(I)c2)C(=O)N1CCCc1ccccc1  Androgen receptor (Rattus norvegicus)         0.639 µM
